Assay: Stability of PDI inhibitors in human plasma
Type: in vitro ADME
Settings: 1 μM, room temperature
Recorded Plasma stability human by entry
reported.endpoint: Plasma stability human

> print(dat)
                                   compound  endpoint.result
1  CC(C)(C)OC(=O)C1(CCOc2ccccc2)CCN(Cc2ccc(O)c(Cl)c2)CC1 [Compound 14]            98.7%
2  CCOC(=O)C1(CCOc2ccccc2)CCN(Cc2ccc(O)c(Cl)c2)CC1 [Compound 1]             100%
3  CC(C)OC(=O)C1(CCOc2ccccc2)CCN(Cc2ccc(O)c(Cl)c2)CC1 [Compound 13]            97.9%
4  CCOC(=O)C1(CCOc2ccccc2)CCN(C(=O)c2ccc(O)c(Cl)c2)CC1 [Compound 9]             100%

* * *

pIC50: −log10 of the molar value.
These compounds were tested on ERp57 (Homo sapiens (Human), UniProt P30101); pIC50 is the recorded read-out.
Sequence (P30101 25-505, species assumed): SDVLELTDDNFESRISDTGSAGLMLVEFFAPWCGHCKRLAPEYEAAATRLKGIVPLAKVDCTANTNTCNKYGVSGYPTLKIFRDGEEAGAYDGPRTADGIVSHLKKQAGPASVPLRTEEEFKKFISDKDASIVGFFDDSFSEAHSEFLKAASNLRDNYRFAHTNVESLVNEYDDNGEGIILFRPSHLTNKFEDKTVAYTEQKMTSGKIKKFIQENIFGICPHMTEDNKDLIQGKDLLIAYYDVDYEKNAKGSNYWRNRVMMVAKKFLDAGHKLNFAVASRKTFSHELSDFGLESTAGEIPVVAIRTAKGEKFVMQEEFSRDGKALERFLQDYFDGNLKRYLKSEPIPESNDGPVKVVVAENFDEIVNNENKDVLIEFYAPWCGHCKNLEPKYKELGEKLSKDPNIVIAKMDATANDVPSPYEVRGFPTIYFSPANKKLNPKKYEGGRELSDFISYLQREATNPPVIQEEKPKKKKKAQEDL
reported.endpoint: pIC50

> print(dat)
                                   compound                                       tgt  endpoint.result
1  CCOC(=O)C1(CCOc2ccccc2)CCN(Cc2ccc(OC)c(Cl)c2)CC1 [Compound 4]  ERp57 (Homo sapiens (Human), UniProt P30101)           < 4.52
2  O=C(Nc1ccccc1)C1(CCOc2ccccc2)CCN(Cc2ccc(O)c(Cl)c2)CC1 [Compound 19]  ERp57 (Homo sapiens (Human), UniProt P30101)           < 4.52
3  O=C(NC1CCCC1)C1(CCOc2ccccc2)CCN(Cc2ccc(O)c(Cl)c2)CC1 [Compound 17]  ERp57 (Homo sapiens (Human), UniProt P30101)           < 4.52
4  CCN(C)C(=O)C1(CCOc2ccccc2)CCN(Cc2ccc(O)c(Cl)c2)CC1 [Compound 16]  ERp57 (Homo sapiens (Human), UniProt P30101)           < 4.52
5  CCOC(=O)C1(CCOc2ccccc2)CCN(Cc2ccc(O)c(Cl)c2)CC1 [Compound 1]  ERp57 (Homo sapiens (Human), UniProt P30101)           < 4.52
6  CC(C)OC(=O)C1(CCOc2ccccc2)CCN(Cc2ccc(O)c(Cl)c2)CC1 [Compound 13]  ERp57 (Homo sapiens (Human), UniProt P30101)           < 4.52
7  CC(C)(C)OC(=O)C1(CCOc2ccccc2)CCN(Cc2ccc(O)c(Cl)c2)CC1 [Compound 14]  ERp57 (Homo sapiens (Human), UniProt P30101)           < 4.52
8  CCOC(=O)C1(CCOc2ccccc2)CCN(C(=O)c2ccc(O)c(Cl)c2)CC1 [Compound 9]  ERp57 (Homo sapiens (Human), UniProt P30101)           < 4.52
9  CCOC(=O)C1(CCOc2ccccc2)CCN(Cc2ccc(O)cc2)CC1 [Compound 7]  ERp57 (Homo sapiens (Human), UniProt P30101)           < 4.52

* * *

Assay: Stability of PDI inhibitors in mouse plasma
Assay type: in vitro ADME
Conditions: 1 μM, room temperature
Description: The stability of PDI inhibitors was measured in the presence of PBS pH 7.4 with 1% DMSO. PDI inhibitors were added to plasma (in triplicate at 1 μM) on six separate plates and allowed to equilibrate at room temperature for 48 hours. At each time point (0, 2, 4, 8, 24, and 48 hours), one plate was removed and an aliquot was taken out from each well and analyzed by UPLC-MS.
Below, each entry is listed alongside its reported Plasma stability mouse.
reported.endpoint: Plasma stability mouse (%)

> print(dat)
                               entry.smiles       reported.endpoint  endpoint.result
1  CCOC(=O)C1(CCOc2ccccc2)CCN(C(=O)c2ccc(O)c(Cl)c2)CC1  Plasma stability mouse              100
2  CC(C)(C)OC(=O)C1(CCOc2ccccc2)CCN(Cc2ccc(O)c(Cl)c2)CC1  Plasma stability mouse             95.6
3  CCOC(=O)C1(CCOc2ccccc2)CCN(Cc2ccc(O)c(Cl)c2)CC1  Plasma stability mouse              5.3
4  CC(C)OC(=O)C1(CCOc2ccccc2)CCN(Cc2ccc(O)c(Cl)c2)CC1  Plasma stability mouse             75.3
